molecular target: UniProtKB P56817; test: Inhibition of BACE1 in human H4 cells stably transfected with APP751 containing Swedish mutation assessed as reduction in Abeta (1 to 40) and Abeta (1 to 42) production incubated for 19 hrs
Sequence (P56817 whole entry): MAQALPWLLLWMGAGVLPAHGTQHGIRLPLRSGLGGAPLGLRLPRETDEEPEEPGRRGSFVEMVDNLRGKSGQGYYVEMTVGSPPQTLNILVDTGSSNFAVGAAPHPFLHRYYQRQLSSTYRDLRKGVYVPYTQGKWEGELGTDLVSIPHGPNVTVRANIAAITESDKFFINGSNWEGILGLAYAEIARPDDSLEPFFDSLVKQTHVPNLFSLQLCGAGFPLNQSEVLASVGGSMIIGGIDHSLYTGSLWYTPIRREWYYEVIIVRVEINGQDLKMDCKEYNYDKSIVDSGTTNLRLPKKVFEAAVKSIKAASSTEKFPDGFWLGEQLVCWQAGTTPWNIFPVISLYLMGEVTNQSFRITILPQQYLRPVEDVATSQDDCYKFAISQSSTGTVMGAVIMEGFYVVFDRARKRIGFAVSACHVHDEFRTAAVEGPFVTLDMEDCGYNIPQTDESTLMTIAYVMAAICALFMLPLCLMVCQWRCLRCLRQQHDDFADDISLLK
Classification field. Basis: IC50. Definitions: Low (below 30 nM), Medium (30 nM to below 200 nM), High (200 nM or more)

Note: place this compound into its band. Item: Cc1noc(C)c1[C@@H]1C[C@@](C)(c2cc(-c3cccnc3C#N)c(F)cc2F)N=C(N)S1
Medium

Note: place this compound into its band. Item: Cc1noc(CC(C)(C)O)c1[C@@H]1C[C@@](C)(c2ccc(F)cc2F)N=C(N)S1
Medium

Others:
Note: place this compound into its band. Item: Cc1noc(C)c1[C@@H]1C[C@@H](c2cc(-c3cccc(C#N)c3)cs2)N=C(N)S1
High

Note: place this compound into its band. Item: Cc1noc(C)c1[C@@H]1C[C@@H](c2cccc(-c3cncnc3)c2)N=C(N)S1
High

Note: place this compound into its band. Item: Cc1noc(C)c1[C@@H]1C[C@@](C)(c2cc(-c3cncnc3)c(F)cc2F)N=C(N)S1
Low

Note: place this compound into its band. Item: Cc1noc(C)c1[C@@H]1C[C@@H](c2cc(NC(=O)c3ccc(Br)cn3)ccc2F)N=C(N)S1
Low

Note: place this compound into its band. Item: CC#Cc1cncc(-c2csc([C@@H]3C[C@@H](c4c(C)noc4C)SC(N)=N3)c2)c1
Medium

The reported measurements were obtained from ChEMBL document CHEMBL3425435.
